Biological target: DRB1*1101 (DR5w11) (Homo sapiens, UniProt P01903+P01911, A100R/A169T/A87E/I96F/K41T/L162R/M171V/P40S/Q125H/Q178H/Q39Y/Q99D/R42S/S66Y/T262R/V115G/W38E)
Sequence (P01903 26-254 limits assumed, other chains not shown): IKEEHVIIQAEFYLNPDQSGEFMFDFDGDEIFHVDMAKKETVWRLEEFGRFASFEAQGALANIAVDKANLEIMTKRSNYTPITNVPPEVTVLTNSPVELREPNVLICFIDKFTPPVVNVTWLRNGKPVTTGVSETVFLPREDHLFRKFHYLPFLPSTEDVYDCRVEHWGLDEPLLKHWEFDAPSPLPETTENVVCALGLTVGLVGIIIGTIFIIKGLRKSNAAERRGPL
Experiment: HLA class II peptide binding assay, purified HLA
Conditions: Table XXa, DR 3a motif peptides; unit not given
// values below are reported DR5w11 binding data
Value Kind: DR5w11 binding data

Smiles Str	Obs Value
CC[C@H](C)[C@H](NC(=O)[C@H](CC(C)C)NC(=O)[C@H](C)NC(=O)[C@@H](N)CC(C)C)C(=O)N[C@@H](Cc1c[nH]cn1)C(=O)N[C@@H](Cc1c[nH]cn1)C(=O)N[C@@H](CC(N)=O)C(=O)N[C@H](C(=O)N[C@@H](Cc1c[nH]cn1)C(=O)N[C@@H](CC(C)C)C(=O)N[C@@H](CS)C(=O)N[C@@H](Cc1ccccc1)C(=O)N[C@H](C(=O)N[C@@H](Cc1c[nH]cn1)C(=O)N[C@H](C(=O)O)[C@@H](C)O)C(C)C)[C@@H](C)O	0.0025
CC[C@H](C)[C@H](NC(=O)[C@H](CCCNC(=N)N)NC(=O)[C@H](CCSC)NC(=O)[C@@H](N)CCC(N)=O)C(=O)N[C@@H](CC(C)C)C(=O)N[C@@H](CCCCN)C(=O)N[C@@H](CCC(=O)O)C(=O)N[C@H](C(=O)N[C@@H](CCC(=O)O)C(=O)N[C@@H](CC(C)C)C(=O)N[C@@H](CCCNC(=N)N)C(=O)N[C@@H](CCCCN)C(=O)N[C@H](C(=O)N[C@@H](CCCCN)C(=O)N[C@H](C(=O)O)C(C)C)C(C)C)[C@@H](C)O	0.0041
CC(C)C[C@H](NC(=O)[C@H](C)NC(=O)[C@H](CCC(N)=O)NC(=O)[C@H](Cc1c[nH]cn1)NC(=O)[C@@H]1CCCN1C(=O)[C@H](CC(N)=O)NC(=O)[C@H](CCCNC(=N)N)NC(=O)[C@H](Cc1ccccc1)NC(=O)[C@H](CC(C)C)NC(=O)[C@H](CCC(N)=O)NC(=O)[C@H](CC(=O)O)NC(=O)[C@@H](N)Cc1c[nH]c2ccccc12)C(=O)N[C@@H](CC(C)C)C(=O)N[C@@H](Cc1c[nH]cn1)C(=O)N[C@H](C(=O)O)[C@@H](C)O	−0.0008

# credit: patent US20040121946A9
